These entries and their values trace back to paper PMC9482650.

For each of the binders below, state its pKd.
- TESTED_SYSTEM: T1, NHERF3_1, Q5T2W1
- T1 sequence (Q5T2W1 4-100, limits assumed, looked up): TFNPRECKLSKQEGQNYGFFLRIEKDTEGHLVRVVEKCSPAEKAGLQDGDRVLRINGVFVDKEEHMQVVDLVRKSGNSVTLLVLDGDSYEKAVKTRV
- ASSAY_DETAILS: holdup assay
- Design: key: below the threshold = too weak to quantify, mostly under pKd 3.1 to 4
- ASSAY_CONDITIONS: plain residues with an end cap or a label only (N-terminal biotin on a linker: ttds)
The response must contain the number and no unit.

INPUT: Would you kindly share the measured pKd for LDSQIQETSI [MAP4, P27816] ?
OUTPUT: 4.52

INPUT: Which measured pKd value corresponds to PKRPFVESNV [TANC2, Q9HCD6] ?
OUTPUT: 3.59

INPUT: For the binder DPRNTQTSQI [ABRAXAS2, Q15018] , what pKd is on record?
OUTPUT: 3.91

INPUT: Reported pKd for RTRQRNETQV [HPV51-E6, P26554] : what is it?
OUTPUT: 4.17

INPUT: Given SEKHFRETEV [HTLV1-TAX1, P03409] , state its recorded pKd.
OUTPUT: 4.71
